- Test system: K4 kissing-loop RNA reporter;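 also: bound reporter read as fluorescence of individual clusters on recovered sequencing chips by microscopy, with normalized cluster intensities fitted with a binding model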
- METHOD_NOTES: apparent KD of K4 kissing-loop reporter; higher = weaker reporter binding
- CONDITIONS: Eterna round: R107; input ligand: none
Values of apparent KD of K4 kissing-loop reporter greater than or equal to 200 nM map to met; values below map to not met.

Solved entries (count: 4):
GUCCCAGUGAUGUUGGUAGGCGAGCGGGAUACCAGCCAAGACUCAGGCCCUUGGCAGCCCACAUAUCCCACGUAGGGAUUAGCUC [Same State - Theophylline A (Freestyle 19)] = met
UUCUUGAUGGAAACAUCGAGGAUUACUGAUACCAGUAUCGAUAGAUACCCUUGGCAGCAGAAUCAGUGAUCACGAGUGAUGUUCG [Ex Theophylline A K4 10] = met
UUGCCUCUGGCUGAUACCAGUGAUGCAGGGUAUGAAACAGGGAGUGAUGUUCCCUGCAGCCACCCUUGGCAGCAGUUUAAGUUUG [Exclusion Theophylline B GF 21] = not met
GUGCAAAGCACCGGCACGAGCAGCCUAAAGGAGGAUAUGACGAAAGUCAGAAGGCCUAGUGAUGUUAGGCCUUGCUUGAGUCGAA [Omei KL FMN A Exc B v1] = not met

Could you now look at the following sequence, please?
Quick check, apparent KD of K4 kissing-loop reporter >= 200 nM? CGCAGUGAUGUUGCGAGUAGCUACAGGGAAGGAGCGCUCUAGUGAGCAGGUAGGUCGCCCACGCAGUGAUGUUGCGUCAUAGGGU [Exclusion Arg A GF9]
not met

---

Give measured apparent KD of MS2 coat protein for each item. Keep answers brief.
- Test system: MS2 coat protein
- METHOD_NOTES: apparent KD of MS2 coat protein; designed switch direction (-1 OFF switch, 1 ON switch): -1; higher = weaker reporter binding
- CONDITIONS: input ligand: microRNA oligo, concentration not stated
Answers are plain numbers, in µM.

# example entries with known answers
UUAUGUGCGAGAGGAUAUCGUGUACAAAGUACACGAGAAGGCUUCACAUGAGGAUCACCCAUGUACCGAGGUGAAACACCUUGA [Omei Exc(NG)1 Bv7] (Eterna round: R96, puzzle: Exclusion NG 1) = 0.476
CGCUAGUCAGGAUAUACGAACAUGUCAAAAGACGUGAAGGGACAUGAGGAUCACCCAUGUAGAAGGGACUAGCA [salish99_ex2_r3_014] (Eterna round: R96, puzzle: Exclusion 2) = 0.0222

// below: apparent KD of MS2 coat protein requested for another sequence
Just so you know, measured apparent KD of MS2 coat protein for UUAUUAUAUGUAGGAUAUGCAUAUUAUUAUUAUGCAGAAGGACAUGAGGAUCACCCAUGUAUAUUAUUAUUAUAUAUUAUGUAU [Title] (Eterna round: R96, puzzle: Exclusion NG 1) came out at 0.0275

---

- Test system: MS2 coat protein
- METHOD_NOTES: apparent KD of MS2 coat protein; designed switch direction (-1 OFF switch, 1 ON switch): -1; higher = weaker reporter binding
- CONDITIONS: input ligand: none
Values of apparent KD of MS2 coat protein greater than or equal to 60 nM map to yes; values below map to no.

UUCCUCAGCUAGGAUAUCAAGGCACCACCCUAAUGAGAAGGAGCAACAUGAGGAUCACCCAUGUGGGUUUCUUA [Aterre] (Eterna round: R97, puzzle: Exclusion 6) = no

Could you now look at the following sequence, please?
Quick check, apparent KD of MS2 coat protein >= 60 nM? AUAAUUAGUUCAGGAUAUCAGCACGAUUAGUGCUGAGAAGGGAACAUGAGGAUCACCCAUGUGAUCAAUAUUAUAAUUUUAAUU [ENG1/12-B1] (Eterna round: R96, puzzle: Exclusion NG 1)
yes
